A collection of variants and their measured protein stability index
B1: EPB41L3 (parent)
chain: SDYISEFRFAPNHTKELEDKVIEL

variants of: B1; experiment: protein stability index of a GFP-peptide fusion (GPS, HEK-293T) (PSI 1-6); higher = more stable; conditions: c terminus: a fixed tail appended;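 note: lentivirally expressed fusions sorted by FACS into six bins by GFP to DsRed ratio, PSI derived from sequencing read proportions per bin multiplied by bin number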
Keep the answer to the number alone.

Sample answers from the record:
> print(dat)
                    query.sequence  observed.measurement
1  SDYISEFRFAPNHTKELADKVIEL [E18A]                  2.05
2   SDYISEFRDAPNHTKELEDKVIEL [F9D]                  4.97
3  SDYISEFRFAPNHTKELEDKVYEL [I22Y]                  2.29
4   SVYISEFRFAPNHTKELEDKVIEL [D2V]                  2.02
5  SDYISEFRFAPNHTKELEDKVAEL [I22A]                  3.26

What value of protein stability index has been recorded for this entry: SDYISEFRFAPNHTKELEDKPIEL [V21P]
1.94

What value of protein stability index has been recorded for this entry: SDYISEFRFAPNHTKEFEDKVIEL [L17F]
2.86

What value of protein stability index has been recorded for this entry: SDYNSEFRFAPNHTKELEDKVIEL [I4N]
4.27

What value of protein stability index has been recorded for this entry: SDYISEFRFAPNHTKESEDKVIEL [L17S]
1.84

What value of protein stability index has been recorded for this entry: SDYISEFMFAPNHTKELEDKVIEL [R8M]
3.49

What value of protein stability index has been recorded for this entry: SDYISEFRFAPNHWKELEDKVIEL [T14W]
2.18

What value of protein stability index has been recorded for this entry: SDQISEFRFAPNHTKELEDKVIEL [Y3Q]
3.28

What value of protein stability index has been recorded for this entry: SDYISEFRFAPNHTKELEDKVIES [L24S]
2.69

What value of protein stability index has been recorded for this entry: SDYISEFRFAPNHTKELQDKVIEL [E18Q]
2.42

What value of protein stability index has been recorded for this entry: SDYISEFRFAPNHTKLLEDKVIEL [E16L]
2.37
